test_method_notes: in-vivo pharmacokinetic study on SD rats, intravenous and intranasal administration
conditions_used: rat, plasma, IN@2 mg/kg, read-out: Area under curve AUC
reported_metric: AUC (ng·h/mL)
Answers are plain numbers, in ng·h/mL.

Memo: "Cc1cc(C[C@@H](NC(=O)N2CCC(c3cc4c([nH]c3=O)SCCC4)CC2)C(=O)N2CCN(C3CCN(C)CC3)CC2)cc2cn[nH]c12" , reported AUC: 2400

###

test_method_notes: in-vivo pharmacokinetic study on SD rats, intravenous and intranasal administration
conditions_used: male, rat, plasma, IV@1 mg/kg, read-out: Volume of distribution steady-state Vss
reported_metric: Vd

Cc1cc(C[C@@H](NC(=O)N2CCC(c3cc4ccccc4[nH]c3=O)CC2)C(=O)N2CCN(C3CCN(C)CC3)CC2)cc2cn[nH]c12 [Zavegepant, zavegepant, reference compound]    0.35 L/kg

Memo: "Cc1cc(C[C@@H](NC(=O)N2CCC(c3cc4c([nH]c3=O)SCC4)CC2)C(=O)N2CCN(C3CCN(C)CC3)CC2)cc2cn[nH]c12" , reported Vd: 0.5 L/kg

###

test_method_notes: in-vivo pharmacokinetic study on SD rats, intravenous and intranasal administration
conditions_used: male, rat, plasma, IV@1 mg/kg, read-out: Half-life period t1/2 (converted)
reported_metric: half-life (h)
Give bare numbers, in h.

Cc1cc(C[C@@H](NC(=O)N2CCC(c3cc4c([nH]c3=O)SCC4)CC2)C(=O)N2CCN(C3CCN(C)CC3)CC2)cc2cn[nH]c12    7.58

# input for lookup
Memo: Cc1cc(C[C@@H](NC(=O)N2CCC(c3cc4ccccc4[nH]c3=O)CC2)C(=O)N2CCN(C3CCN(C)CC3)CC2)cc2cn[nH]c12 [Zavegepant, zavegepant, reference compound] , reported half-life: 2.58

###

test_method_notes: stability test in liver microsomes (rat)
Type: in vitro ADME
conditions_used: 1.0 µM
Method: The stability of the compound of the present invention in liver microsomes of rat, monkey and human was determined. Tested compounds of the present invention were the compounds in Examples 6, 8 and 29, and a control drug was Zavegepant. […] A peak area was determined by an extracted ion chromatogram. A slope value k was determined by linear regression of a remaining percentage of a parent drug relative to a natural logarithm of an incubation time curve. […]
reported_metric: half-life at 1 µM

Cc1cc(C[C@@H](NC(=O)N2CCC(c3cc4c([nH]c3=O)SCC4)CC2)C(=O)N2CCN(C3CCN(C)CC3)CC2)cc2cn[nH]c12    > 2 h
Cc1cc(C[C@@H](NC(=O)N2CCC(c3cc4c([nH]c3=O)SCCC4)CC2)C(=O)N2CCN(C3CCN(C)CC3)CC2)cc2cn[nH]c12    > 2 h

# input for lookup
Memo: Cc1cc(C[C@@H](NC(=O)N2CCC(c3cc4ccccc4[nH]c3=O)CC2)C(=O)N2CCN(C3CCN(C)CC3)CC2)cc2cn[nH]c12 [Zavegepant, zavegepant, reference compound] , reported half-life at 1 µM: > 2 h

###

Consider the following molecules; for each one, report its half-life at 1 µM.
test_method_notes: stability test in liver microsomes (monkey)
Type: in vitro ADME
conditions_used: 1.0 µM
One number for each entry, in h.

Cc1cc(C[C@@H](NC(=O)N2CCC(c3cc4c([nH]c3=O)SCC4)CC2)C(=O)N2CCN(C3CCN(C)CC3)CC2)cc2cn[nH]c12 [Example 8]    1.48

Memo: Cc1cc(C[C@@H](NC(=O)N2CCC(c3cc4ccccc4[nH]c3=O)CC2)C(=O)N2CCN(C3CCN(C)CC3)CC2)cc2cn[nH]c12 [Zavegepant, zavegepant, reference compound] , reported half-life at 1 µM: 1.78

Data provenance is patent EP4703362A1.
